- test_method_notes: modulators of MEP2-GFP levels in yeast, confirmation, S. cerevisiae, flow cytometry GFP, cherry picks (AID 2272);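 further: ratio of well signal to plate DMSO mean so 100% equals DMSO level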
- condition_label: S. cerevisiae MEP2-GFP strain, 3 h, at 10 µM, stronger effect = higher value
measured_endpoint: GFP response vs DMSO (%)

>>> reported_value("Cc1nc2c(-c3ccc(F)cc3)c(C)nn2c(N2CCOCC2)c1C")
104
>>> reported_value("Cc1ccc(C(=O)c2c3ccccc3[n+]([O-])n2CCC(=O)O)cc1")
104
>>> reported_value("Nc1cccc(C(=O)Nc2ccccc2Cl)c1")
100
>>> reported_value("OC1(c2ccc(F)cc2)CSC(=Nc2cccnc2)N1Cc1ccco1 (centres undefined)")
110
>>> reported_value("CS(=O)(=O)c1sc(C#N)c2c1C(=O)CC(c1ccccc1)C2 (centres undefined)")
116
>>> reported_value("O=C1c2cccc3c([N+](=O)[O-])ccc(c23)C(=O)N1CCc1ccccn1")
286
>>> reported_value("Cn1c(=O)c(C(=O)NC2CCCCCCC2)c(O)c2ccccc21")
95.7
>>> reported_value("O=C(Nc1c(-c2ccccc2)nc2ccccn12)c1ccco1")
98.3
>>> reported_value("CCC(=O)c1ccc(N2CCN(C(=O)c3ccc(Br)cc3)CC2)c(F)c1")
101
>>> reported_value("OCC[n+]1ccc(/C=C/c2c[nH]c3ccccc23)cc1")
164
>>> reported_value("Cc1c(CC(C)C)nc(N)c(C#N)c1-c1ccccc1")
102
>>> reported_value("O=C(Cc1ccc(Cl)cc1)Nc1ccc(Br)cn1")
118
>>> reported_value("COc1cccc(-c2nnc(NC(=O)c3ccc(S(=O)(=O)N4CCOCC4)cc3)o2)c1")
101
>>> reported_value("O=C(NCc1ccccn1)c1cc(-c2ccc(Cl)cc2)oc1C(F)(F)F")
100
>>> reported_value("COc1cccc(C2CC(c3c(-c4ccccc4)c4cc(Cl)ccc4[nH]c3=O)=NN2S(C)(=O)=O)c1OC (centres undefined)")
99.5
>>> reported_value("CCOC(=O)c1ccc2nc(Nc3nc4ccc(F)cc4s3)sc2c1")
101
>>> reported_value("COc1ccc(NC(=O)/C(C#N)=C/c2ncc([N+](=O)[O-])n2C)c(OC)c1")
169
>>> reported_value("Cc1ccc(-c2csc(NC(=O)c3cccc([N+](=O)[O-])c3)n2)cc1")
107
>>> reported_value("Cc1nn(C(=O)c2ccco2)c(C)c1Sc1ccccc1")
101
>>> reported_value("C/C(=N\\NC(=O)c1ccc(Cl)c(Cl)c1)c1ccccn1")
118
>>> reported_value("CCc1nnc(NC(=O)c2ccc(S(=O)(=O)N(CC(C)C)CC(C)C)cc2)o1")
101
>>> reported_value("CC[n+]1cc(C)ccc1/C=C/c1ccc(N(C)C)cc1")
162
>>> reported_value("COc1ccc(C2CC(c3c(-c4ccccc4)c4cc(Cl)ccc4[nH]c3=O)=NN2S(C)(=O)=O)cc1OC (centres undefined)")
96.2
>>> reported_value("O=C1CC(Sc2nnc(-c3ccccc3O)o2)C(=O)N1c1ccccc1 (centres undefined)")
101
>>> reported_value("C/C(CCC12CC3CC(CC(C3)C1)C2)=N\\NC(N)=S")
98.3
>>> reported_value("Cc1ccc(-c2nc(NC(=O)c3nn(C)cc3[N+](=O)[O-])sc2C)cc1")
102
>>> reported_value("CC(C)c1nc2ccccn2c1NC1CCCCC1")
100
>>> reported_value("Cc1c(/C=N/Nc2ccc(C(=O)O)cc2)c2ccccc2n1C")
103
>>> reported_value("O=C(COc1ccc(OCc2ccccc2)cc1)NN=C1CCCC1")
103
>>> reported_value("COc1ccc(OCC(O)CNC(=O)/C=C/c2cccc([N+](=O)[O-])c2)cc1 (centres undefined)")
101
>>> reported_value("CCCc1nnc(NC(=O)c2nc(S(=O)(=O)Cc3cccc(C)c3)ncc2Cl)s1")
103
>>> reported_value("Cc1ccc(C(C[N+](=O)[O-])n2nc(C)cc2C)cc1 (centres undefined)")
103
>>> reported_value("Cc1occc1-c1nnc(-c2cc([N+](=O)[O-])cc([N+](=O)[O-])c2)o1")
123
>>> reported_value("O=[N+]([O-])c1c(Nc2ccccn2)cc(Cl)c2nonc12")
966
>>> reported_value("COc1cc(NC(=O)c2cccs2)ccc1NC(=O)c1cc2ccccc2o1")
100
>>> reported_value("O=C1c2ccsc2SCCN1Cc1ccc(Cl)cc1Cl")
94.7
>>> reported_value("O=C1CC(SCc2nc3ccccc3[nH]2)C(=O)N1c1cccc(F)c1 (centres undefined)")
99.3
>>> reported_value("Cc1nnc(NC(=O)c2nc(S(=O)(=O)Cc3ccccc3C)ncc2Cl)s1")
99.3
>>> reported_value("CCc1ccc(C2CC(c3ccco3)=NN2S(C)(=O)=O)cc1 (centres undefined)")
180
>>> reported_value("CCCN(c1ccccc1F)S(=O)(=O)c1cc(-c2cc(C)no2)ccc1OC")
102
>>> reported_value("C/C(=N\\NC(=O)Cc1ccc([N+](=O)[O-])cc1)c1cccnc1")
96.8
>>> reported_value("CCCCN(CC)S(=O)(=O)c1ccc(C(=O)Nc2nnc(-c3ccccc3Cl)o2)cc1")
109
>>> reported_value("COc1ccc(NS(=O)(=O)c2cccc3ccccc23)cc1")
102
>>> reported_value("COc1ccccc1C(=O)NNC(=S)NC(=O)c1cccs1")
128

====

Below, each of the compounds is paired with its reported GFP response, % of DMSO value.
- test_method_notes: modulators of CIT2-GFP expression in yeast, confirmation, S. cerevisiae, GFP fusion, cherry picks, mother/daughter gates (AID 2274)
- condition_label: S. cerevisiae CIT2-GFP strain, flow cytometry, 3 h; at 10 µM; stronger effect = higher value
The source made the active and inactive calls.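 Rule for the calls: active = GFP response above 150% of the DMSO level; inconclusive = fewer than 70 events counted for a yeast strain; inactive = the rest.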
measured_endpoint: GFP response, % of DMSO

>>> reported_value("COc1ccccc1N1C(=O)CC(Sc2ncccc2C(=O)O)C1=O (configuration not stated)")
"100% (inactive)"
>>> reported_value("O=S(=O)(/N=C(/Sc1ccccc1)c1ccccc1)c1ccccc1")
"84.7% (inactive)"
>>> reported_value("CN(c1ccccc1)S(=O)(=O)c1ccc(C(=O)Nc2nnc(-c3ccc(F)cc3)o2)cc1")
"131% (inactive)"
>>> reported_value("COc1cccc2c1Oc1ncccc1N(C(=O)CCC(=O)NCc1cccc(C)c1)C2")
"105% (inactive)"
>>> reported_value("CC1=C/C(=N\\OS(=O)(=O)c2ccccc2)C(C)=CC1=O")
"98.8% (inactive)"
>>> reported_value("Cc1ccccc1Sc1ncnc2onc(C)c12")
"98.6% (inactive)"
>>> reported_value("Cc1nn(Cc2c(Cl)cccc2Cl)c(C)c1NC(=O)c1sc2ccccc2c1Cl")
"104% (inactive)"
>>> reported_value("CCN1CCN(C(=O)C2CCN(c3nnc(C)c4c(C)n(-c5ccc(C)cc5)nc34)CC2)CC1")
"99.3% (inactive)"
>>> reported_value("Cc1noc(/C=C/c2ccccn2)c1[N+](=O)[O-]")
"90.1% (inactive)"
>>> reported_value("Cc1ccc(CS(=O)(=O)c2ncc(Cl)c(C(=O)Nc3nnc(C)s3)n2)cc1")
"103% (inactive)"
>>> reported_value("CCOC(=O)c1cc2c(=O)n3ccccc3nc2n(CCOC)c1=NC(=O)C(C)(C)C")
"94.4% (inactive)"
>>> reported_value("CN(C)CCCNc1cc(C(C)(C)C)nc2c(-c3ccc(Cl)cc3)cnn12")
"93.1% (inactive)"
>>> reported_value("CC1=NNC(=O)/C1=C\\c1cn(-c2ccccc2)nc1-c1ccc(Cl)cc1")
"97.2% (inactive)"
>>> reported_value("CCCOc1ccc(C(=O)NNC(=S)NC(=O)c2ccccc2)cc1")
"114% (inactive)"
>>> reported_value("CC(C)CC[n+]1ccccc1/C=C/c1ccc(N(C)C)cc1")
"115% (inactive)"
>>> reported_value("O=c1[nH]c(-c2ccccn2)nc(C(F)(F)F)c1Br")
"112% (inactive)"
>>> reported_value("C/C(=N\\NC(=O)c1cccc(Br)c1)c1ccc(Br)cc1")
"98.6% (inactive)"
>>> reported_value("N#C/C(=C\\c1ccc(N2CCOCC2)o1)c1ccccc1")
"104% (inactive)"
>>> reported_value("CN1CCN(C(c2ccc(C(F)(F)F)cc2)c2ccc3cccnc3c2O)CC1 (configuration not stated)")
"97.3% (inactive)"
>>> reported_value("CC(=O)NC1(C(F)(F)F)C(=O)Nc2c1c(=O)[nH]c(=O)n2CCc1ccccc1 (configuration not stated)")
"88.6% (inactive)"
>>> reported_value("Nc1cccnc1S(=O)(=O)c1cccc(C(F)(F)F)c1")
"96.9% (inactive)"
>>> reported_value("CCn1c(=O)c(C(=O)NCCc2ccccc2)c(O)c2ccccc21")
"98.6% (inactive)"

====

Form field: GFP response vs DMSO (one value per entry).
- test_method_notes: RPL19A-GFP modulators, yeast TOR pathway, confirmation, cell-based, S. cerevisiae, flow cytometry, cherry picks, mother/daughter gates (AID 2270)
- condition_label: S. cerevisiae RPL19A-GFP strain, 3 h, measured here: daughter cell gate, at 10 µM, stronger effect = lower value, 100 = same GFP as DMSO wells
measured_endpoint: GFP response vs DMSO (%)

>>> reported_value("CS(=O)(=O)N1N=C(c2ccco2)CC1c1ccccc1 (stereo not given)")
101
>>> reported_value("CCOc1cc(/C=C2/N=C(c3ccc4c(c3)OCO4)OC2=O)ccc1OC(C)=O")
87.5
>>> reported_value("O=C(c1cc([N+](=O)[O-])cc([N+](=O)[O-])c1)N(Cc1nnc(-c2ccccc2Cl)o1)C1CC1")
101
>>> reported_value("O=C(/C=C/c1c(F)cccc1Cl)c1ccc(O)cc1")
94
>>> reported_value("COc1ccc(-c2nnc(NC(=O)c3ccc([N+](=O)[O-])o3)o2)c(OC)c1")
100
>>> reported_value("CNC(=O)/C(C#N)=C/c1c(N(Cc2ccccc2)Cc2ccccc2)nc2c(C)cccn2c1=O")
98.1
>>> reported_value("Cc1ccc(N2C(=O)C3C4C=CC(CNC(=S)Nc5ccc(Cl)cc5)(O4)C3C2=O)cc1 (stereo not given)")
101
>>> reported_value("O=S(=O)(c1ccc(C2CCCCC2)cc1)N1CCOCC1")
92.7
>>> reported_value("N#Cc1cc(Sc2ccccn2)c([N+](=O)[O-])cc1C#N")
110
>>> reported_value("Cc1cccn2c(=O)c(/C=C(\\C#N)C(=O)NCc3ccco3)c(N3CCC(C(N)=O)CC3)nc12")
90.9
